Tested on: HCC-2998 colon
measurement-protocol: NCI-60 one-dose screen, 48 h (100 = growth as untreated, 0 = no growth, -100 = all killed)
condition-notes: 10 µM unless noted
About 83,000 compounds went through this panel and 20% of them were active in at least one assay; those are over-represented in the sample as a whole.
recorded-endpoint: growth (%)
Give bare numbers, in %.

Example results:
>>> reading("COc1cccc(-c2ccc3c(c2)C2CCN(Cc4ccccc4)C3C2)c1 (stereo not given)")
83.5
>>> reading("C(=C\\c1ccccc1)/CN1CCN(C(c2ccccc2)c2ccccc2)CC1")
100
>>> reading("COc1ccc(Cn2c(Br)c3c(c2-c2cc(OC)c(OC)c(OC)c2)CCc2sc(N)nc2-3)cc1")
12.4
>>> reading("Cc1ccccc1-c1cc(-c2ccc(Br)s2)[nH]c(=O)c1C#N")
104

Request: I'm curious: which growth was measured for COc1ccc2nc(-n3nc(C)cc3C)c(-n3nc(C)cc3C)nc2c1 tested on HCC-2998 colon?
Result: 89.8

====

System: OVCAR-3 ovarian
measurement-protocol: NCI-60 one-dose screen, 48 h (100 = growth as untreated, 0 = no growth, -100 = all killed)
condition-notes: 10 µM unless noted
Compounds without any hit were thinned out: in the full panel of roughly 83,000, 20% have a hit.
recorded-endpoint: growth (%)
Answers are plain numbers, in %.

Example results:
>>> reading("CN1CCc2c(Sc3ccc(C(=O)NO)cc3)c3ccccc3n2C1")
42.8
>>> reading("C=C(C)COC(=O)c1ccccc1C(=O)OCC1(C)CO1 (configuration not stated)")
108

Can you give me growth for all of these, one by one?
1. COc1cc(C(=O)/C=C/c2c(-c3cccs3)nc3sccn23)cc(OC)c1OC
2. Cc1ccc2nc(NC(=O)CSC(=S)N3CCN(Cc4ccccc4)CC3)sc2c1
3. CC1CCCCN1S(=O)(=O)c1ccc(CN=C=S)cc1 (configuration not stated)
4. CCN(c1ccc(C(=O)N2CCN(c3ccccc3)CC2)cc1)S(C)(=O)=O

Result:
1. -19.1
2. -90.4
3. -55.6
4. 106

====

Tested on: IGROV1 ovarian
measurement-protocol: NCI-60 one-dose screen, 48 h (100 = growth as untreated, 0 = no growth, -100 = all killed)
condition-notes: 10 µM unless noted
This is part of a sample that, as a whole, favours compounds with a hit. Of some 83,000 tested, about 20% had one in any assay.
recorded-endpoint: growth (%)
One number for each entry, in %.

Example results:
>>> reading("O=C(c1ccc2ncc(-c3nc(NC4CC4)ncc3F)n2c1)N1CCOCC1")
8.94
>>> reading("CCN(c1ccc(C(=O)N2CCN(c3ccccc3)CC2)cc1)S(C)(=O)=O")
107
>>> reading("CN(C)C(=S)SCN1C(=O)c2ccc([N+](=O)[O-])cc2S1(=O)=O")
104
>>> reading("O=c1c2cc(F)ccc2oc2c(NCCNCCO)nc3ccccc3c12")
37
>>> reading("Clc1cccc(Cl)c1Nc1ccc2nnc(-c3ccncc3)n2n1")
93.8
>>> reading("Cc1ccc(S(=O)(=O)c2ccc3[nH]c(=O)[nH]c(=O)c3c2)cc1")
104
>>> reading("COc1ccc(C2OCC(C)(C)CO2)cc1OC")
139
>>> reading("COc1ccc(/C=N/NC(=O)c2cnn3c2NC(c2ccccc2)C3)cc1OC1CCCC1 (stereo not drawn)")
101

Can you give me growth for all of these, one by one?
1. NC(=O)c1cc(Cl)ccc1NC(=O)COc1ccccc1
2. Clc1ccc(C2=NN(c3ccccc3)[C@H](c3cn(-c4ccccc4)nc3-c3ccccc3)C2)cc1
3. COc1ccc(OC)c2ncccc12
4. COc1cc(/C=C2\C(=O)Nc3ccccc32)cc(OC)c1O
5. CCOC(=O)c1sc(NC(=O)CN2CCC(Cc3ccccc3)CC2)nc1C
6. NC(=O)c1cc(I)ccc1NC(=O)COc1ccc(Cl)cc1Cl
7. CCN(CC)CCCNc1ccc(C)c2sc3ccccc3c(=O)c12

Result:
1: 54.5; 2: 104; 3: 106; 4: 70.2; 5: 87.6; 6: 89.3; 7: 51.9
